- Test system: Epidermal growth factor receptor (Homo sapiens), P00533 [L858R,T790M]
- Sequence (P00533 whole entry T790M/L858R, looked up): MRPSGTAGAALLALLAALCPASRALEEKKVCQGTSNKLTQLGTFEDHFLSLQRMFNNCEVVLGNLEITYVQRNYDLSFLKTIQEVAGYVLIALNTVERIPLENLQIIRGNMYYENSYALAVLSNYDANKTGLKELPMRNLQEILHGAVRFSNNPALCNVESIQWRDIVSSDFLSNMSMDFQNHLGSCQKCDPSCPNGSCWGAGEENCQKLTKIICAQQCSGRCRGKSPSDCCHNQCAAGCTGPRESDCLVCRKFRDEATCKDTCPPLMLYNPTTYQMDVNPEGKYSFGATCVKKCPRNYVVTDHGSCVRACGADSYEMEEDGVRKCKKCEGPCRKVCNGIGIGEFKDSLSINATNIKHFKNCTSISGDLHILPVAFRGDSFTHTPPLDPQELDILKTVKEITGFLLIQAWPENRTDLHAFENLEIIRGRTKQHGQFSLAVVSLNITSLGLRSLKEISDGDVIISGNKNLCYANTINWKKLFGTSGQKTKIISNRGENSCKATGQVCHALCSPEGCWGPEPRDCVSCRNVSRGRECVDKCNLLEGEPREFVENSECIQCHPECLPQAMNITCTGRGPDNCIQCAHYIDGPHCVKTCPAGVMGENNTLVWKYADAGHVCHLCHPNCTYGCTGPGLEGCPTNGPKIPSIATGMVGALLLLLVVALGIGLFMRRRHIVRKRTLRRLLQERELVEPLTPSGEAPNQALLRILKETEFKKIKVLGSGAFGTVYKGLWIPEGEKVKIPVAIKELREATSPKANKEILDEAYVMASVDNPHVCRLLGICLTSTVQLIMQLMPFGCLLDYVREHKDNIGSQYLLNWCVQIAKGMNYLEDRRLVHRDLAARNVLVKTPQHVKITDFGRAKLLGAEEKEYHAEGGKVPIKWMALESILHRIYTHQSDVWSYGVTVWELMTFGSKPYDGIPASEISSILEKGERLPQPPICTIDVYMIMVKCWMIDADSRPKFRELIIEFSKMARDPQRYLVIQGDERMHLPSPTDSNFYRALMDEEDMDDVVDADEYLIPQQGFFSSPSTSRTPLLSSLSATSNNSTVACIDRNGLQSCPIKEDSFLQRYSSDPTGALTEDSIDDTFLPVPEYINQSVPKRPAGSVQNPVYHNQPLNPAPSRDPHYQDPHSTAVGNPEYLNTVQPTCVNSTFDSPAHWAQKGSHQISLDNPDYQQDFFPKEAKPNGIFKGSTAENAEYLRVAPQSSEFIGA
- Reported conditions: at 1 µM
inhibition by entry:
Experimental readout: inhibition

smiles_input=O=C1Nc2ccccc2/C1=C1\CCc2cc(O)ccc21 experimental_readout=inhibition recorded_result=4.76%
smiles_input=NS(=O)(=O)c1ccc(N/N=C2\C(=O)Nc3cccc(CCc4ccncc4)c32)cc1 experimental_readout=inhibition recorded_result=1.83%
smiles_input=c1cnn2ncc(-c3ccnc(NCCCN4CCOCC4)n3)c2c1 experimental_readout=inhibition recorded_result=0.81%
smiles_input=c1ccc(-c2n[nH]cc2-c2ccnc(-c3ccc(OCCn4ccnc4)cc3)c2)nc1 experimental_readout=inhibition recorded_result=2.87%
smiles_input=COc1cc(N2CCN(C(C)C)CC2)ccc1Nc1nc(Nc2cccc(F)c2C(=O)O)c2cc[nH]c2n1 experimental_readout=inhibition recorded_result=48.9%
smiles_input=CCn1c(-c2nonc2N)nc2cncc(C(=O)NCCNC)c21 experimental_readout=inhibition recorded_result=5.19%
smiles_input=Cc1ccc(-c2cc3c(NC(=O)C4CC4)ncnc3o2)cc1 experimental_readout=inhibition recorded_result=5.94%
smiles_input=OCCCNc1nccc(-c2c(-c3ccc(F)cc3)nn3cc(C(F)(F)F)ccc23)n1 experimental_readout=inhibition recorded_result=5.46%
smiles_input=N#Cc1cccc(Nc2ncc(-c3ccccc3)o2)c1 experimental_readout=inhibition recorded_result=3.37%
smiles_input=COc1ccccc1-c1cc(/C=C2\C(=O)Nc3ncc(Br)cc32)cc(Br)c1O experimental_readout=inhibition recorded_result=4.48%
